Entry source: ChEMBL document CHEMBL1135604

Reported values: Ki for 5-hydroxytryptamine receptor 2A (Rattus norvegicus), one per item.
Your answer is read as µM, so omit the unit and give the number.

Sample "NCC12CCC(c3ccccc31)c1ccccc12" — what was its Ki?
0.77

Now this one: "NCCc1ccccc1Cc1ccccc1"
1.81

Now this one: "NCC12CC(c3ccccc31)c1ccccc12"
6.78

Now this one: NCC1Cc2ccccc2-c2ccccc21 (stereo not given)
0.711

Now this one: c1ccc2c(c1)Cc1cccc3c1C2CNC3 (stereo not given)
0.296

Now this one: CC(N)C1c2ccccc2Cc2ccccc21 (stereo not given)
0.193

Now this one: NCC1CC2c3ccccc3C1c1ccccc12 (stereo not given)
9.53

---

Reported values: Ki for UniProtKB P14842, one per item.
Sequence (P14842 whole entry, looked up): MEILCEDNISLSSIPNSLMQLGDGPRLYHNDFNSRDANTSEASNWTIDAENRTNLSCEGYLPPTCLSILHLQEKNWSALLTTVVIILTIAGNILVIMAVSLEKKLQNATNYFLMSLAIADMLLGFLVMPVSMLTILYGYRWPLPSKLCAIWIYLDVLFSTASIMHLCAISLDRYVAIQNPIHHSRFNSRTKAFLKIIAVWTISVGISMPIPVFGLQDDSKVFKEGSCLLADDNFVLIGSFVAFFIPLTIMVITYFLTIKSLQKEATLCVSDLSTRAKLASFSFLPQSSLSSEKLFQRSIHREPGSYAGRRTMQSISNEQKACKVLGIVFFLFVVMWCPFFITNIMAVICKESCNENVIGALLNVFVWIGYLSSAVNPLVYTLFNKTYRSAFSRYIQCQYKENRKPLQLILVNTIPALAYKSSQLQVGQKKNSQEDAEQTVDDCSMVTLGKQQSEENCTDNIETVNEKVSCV

Sample NCC1CCCc2ccccc21 (stereo not drawn) — what was its Ki?
> 10 µM

Now this one: c1ccc2c(c1)C1c3ccccc3C2C2NC12 (stereo not drawn)
> 10 µM

Now this one: NC1CC2c3ccccc3C1c1ccccc12 (stereo not drawn)
> 10 µM
